Target: TEAD3 (Homo sapiens, UniProt Q99594)
Sequence (Q99594 whole entry, species assumed): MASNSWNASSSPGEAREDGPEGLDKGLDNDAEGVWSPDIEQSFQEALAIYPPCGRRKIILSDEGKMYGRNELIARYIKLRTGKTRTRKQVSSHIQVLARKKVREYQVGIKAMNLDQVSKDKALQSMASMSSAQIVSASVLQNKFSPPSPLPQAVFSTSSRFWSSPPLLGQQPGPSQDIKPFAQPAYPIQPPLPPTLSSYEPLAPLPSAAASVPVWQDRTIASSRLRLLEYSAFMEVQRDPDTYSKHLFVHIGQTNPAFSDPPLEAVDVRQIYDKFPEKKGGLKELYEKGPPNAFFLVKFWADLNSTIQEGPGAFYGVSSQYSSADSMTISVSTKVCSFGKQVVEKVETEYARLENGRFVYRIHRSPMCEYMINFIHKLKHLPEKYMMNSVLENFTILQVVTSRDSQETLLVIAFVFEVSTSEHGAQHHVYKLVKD
Protocol Summary: Lipid HTRF (TR-FRET lipid pocket probe competition), 30 min pre-incubation, TEAD3
Format: binding
Experimental Parameters: His-tagged TEAD3, 30 minutes pre-incubation with compound at room temperature; read-out: Lipid HTRF TEAD3 IC50
Mark criterion met only for IC50 values smaller than 200 nM; exact matches and larger values are criterion not met.

Is IC50 of CC(C)c1ccc(-c2cc(NC(=O)C3(CCC(N)=O)CO3)c(C#N)c3c2OCC3)cc1 (single isomer, unassigned) [Enantiomer B from Example 52] strictly below 200 nM? criterion not met

Given "N#Cc1c(NC(=O)[C@H]2CO2)cc(-c2ccc(OC(F)(F)F)cc2)c2c1CCO2" , is recorded IC50 strictly lower than 200 nM? criterion not met

Does the reported IC50 of the following molecule sit strictly below 200 nM? "C=CC(=O)N(CCO)c1cc(/C=C/C2CCC(F)(F)CC2)c2c(c1)CCO2" criterion not met

Here's an entry: C=CC(=O)Nc1cnc(OC)c(/C=C/C2CCC(C(F)(F)F)OC2)c1 (single isomer, unassigned) [Enantiomer B from Example 42] . Is its IC50 below 200 nM? criterion not met

Would you kindly verify if IC50 of "C=CC(=O)Nc1ncc(OC)c(/C=C/C2CCC(F)(F)CC2)n1" is strictly less than 200 nM? criterion met

Is it true that IC50 reported for CC(C)c1ccc(-c2cc(NC(=O)C3(CCC(N)=O)CO3)c(C#N)c3c2OCC3)cc1 (single isomer, unassigned) [Enantiomer A from Example 52] is less than 200 nM? criterion not met

Regarding "CC(C)c1ccc(-c2cc(NC(=O)N(C)C#N)c(C#N)c3c2OCC3)cc1" , kindly confirm whether its IC50 is beneath 200 nM. criterion not met

Dear reviewer, please state whether "C=CC(=O)Nc1ccc(OC)c(/C=C/C2CCC(F)(F)CC2)c1" has IC50 strictly beneath 200 nM. criterion met
